System: 379773-124-R-J2-PDC complex spheroids, viability % test/control;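 also: compound exposure lasted seven days before the viability readout; 100% = DMSO vehicle control wells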
Test: Anticancer human tumor 379773-124-R-J2-PDC patient-derived endometrial carcinoma cell line growth inhibition [CLK]; active = viability on the fitted dose curve at most 10% of control; inactive = the rest
Conditions: second compound 1 µM; first compound 0.3 µM
Outcome codes: label 1 (active), label 0 (inactive)

1. C=CC(=O)Nc1cc(Nc2nccc(-c3cn(C)c4ccccc34)n2)c(OC)cc1N(C)CCN(C)C + CNC(=O)c1ccc(Nc2nc(OC3CCCC3)c3c(-c4ccc5nc(C)oc5c4)c[nH]c3n2)c(OC)c1	label 0
2. NC(=O)C(=Cn1cnc(-c2cc(C(F)(F)F)cc(C(F)(F)F)c2)n1)c1cncnc1 + CNC(=O)c1ccc(Nc2nc(OC3CCCC3)c3c(-c4ccc5nc(C)oc5c4)c[nH]c3n2)c(OC)c1	label 0
3. NC(=O)C(=Cn1cnc(-c2cc(C(F)(F)F)cc(C(F)(F)F)c2)n1)c1cncnc1 + CN1CCN(c2cc(C(=O)Nc3cc4cc(-c5cnn(C)c5)ccc4cn3)ccn2)CC1	label 1
4. C=CC(=O)Nc1cc(Nc2nccc(-c3cn(C)c4ccccc34)n2)c(OC)cc1N(C)CCN(C)C + CN1CCN(c2cc(C(=O)Nc3cc4cc(-c5cnn(C)c5)ccc4cn3)ccn2)CC1	label 1
5. CC(C)CC(NC(=O)C(Cc1ccccc1)NC(=O)c1cnccn1)B(O)O (stereo unspecified) + CNC(=O)c1ccc(Nc2nc(OC3CCCC3)c3c(-c4ccc5nc(C)oc5c4)c[nH]c3n2)c(OC)c1	label 1
6. CC(C)CC(NC(=O)C(Cc1ccccc1)NC(=O)c1cnccn1)B(O)O (stereo unspecified) + CN1CCN(c2cc(C(=O)Nc3cc4cc(-c5cnn(C)c5)ccc4cn3)ccn2)CC1	label 1
